Reference for the values: patent US20140120095A1

# Lookup of reported % inh keyed by entry
- experimental.system: T1, human DLL4 overexpressed on cells (human, UniProt Q9NR61 27-685)
- T1 construct: full length human DLL4 on CHO or HEK293 cells; also called CHO-hDLL4; CHO-hDII4
- measurement.description: FMAT, labelled hNotch1-Fc on CHO-hDLL4, periplasmic extract
- Excerpt: All calculations are based on the FL1_total signal which comprises the average of the fluorescence per well times the number of counts per well.
// return numeric value only (unit: %, not printed)

Some binders with known % inh results, for comparison:
binder: DLLBII104G01 (VHH, also called 104G1) VHH: EVQLVESGGGLVQAGGSLRLSCAASGFTFDDYAIGWFRQAPGKEREGVSCISSSDGSTYYADSVKGRFTISSDNAKNTVYLQMNSLKPEDTAVYYCATAWCDSSWYRSFVGYWGQGTQVTVSS
unit.abbrev: %
% inh: 94
--
binder: DLLBII101H05 (VHH) VHH: EVQLVESGGGSAQAGGSLRLSCAASGRTSSTYAMGWFRQAPGKEHEFVSAIGRGTGATSYGDSVKGRFTISRDNAKNTVYLQMNSLQLEDTGDYYCVAGRGFYHDYSSYEYRGQGTQVTVSS
unit.abbrev: %
% inh: 85
--
binder: DLLBII47D01 (VHH) VHH: EVQLVESGGGLVQPGGSLRLSCAASGFTFDDYAIGWFRQAPGKEREGVSCISSSGSTYYADSVKGRFTISRDNAKNTVYLQMNSLKPEDTAVYYCAIAGASSWCFPPGYWGQGTQVTVSS
unit.abbrev: %
% inh: 87

Okay, next one:
Request: Complete the entry with % inh for DLLBII115A05 (VHH, also called 115A5; DLLBII115A5) VHH: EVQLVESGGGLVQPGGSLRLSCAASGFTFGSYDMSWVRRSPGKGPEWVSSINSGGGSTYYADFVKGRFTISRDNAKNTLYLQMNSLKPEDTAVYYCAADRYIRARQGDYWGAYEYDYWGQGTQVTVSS
Response: 74
